- system-name: cytochrome c peroxidase (CcP) (Saccharomyces cerevisiae, UniProt P00431, R115A/T120I/D219G/W258F)
- Sequence (P00431 68-361 R115A/T120I/D219G/W258F): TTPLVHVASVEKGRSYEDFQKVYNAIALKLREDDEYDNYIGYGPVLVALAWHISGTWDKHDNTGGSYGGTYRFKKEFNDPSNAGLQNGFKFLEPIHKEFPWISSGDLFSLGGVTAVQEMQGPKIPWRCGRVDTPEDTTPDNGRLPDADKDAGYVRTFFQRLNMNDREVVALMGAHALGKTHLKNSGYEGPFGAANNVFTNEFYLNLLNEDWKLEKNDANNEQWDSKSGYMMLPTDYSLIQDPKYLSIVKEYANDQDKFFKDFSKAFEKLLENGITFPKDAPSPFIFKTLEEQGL
- test-summary: UV-visible optical titration of ferric enzyme
pKd: −log10 of the molar value.
endpoint: pKd

- molecule: "N=C(N)NO [NHG, N-hydroxyguanidine]"
  result-number: 2.47
